# test_description: Solubility in water at 25°C
# Assay type: physicochemical
test_readout: solubility

Return solubility for the following molecule: CC[C@H](Nc1ncnc2[nH]cnc12)c1nc2cccc(F)c2c(=O)n1-c1ccccc1 [pure amorphous idelalisib]
~0.415 mg/mL

###

# test_description: Solubility at pH 6.8
# Type: physicochemical
# measurement_context: pH 6.8, aqueous buffer
test_readout: solubility

Return solubility for the following compound: CC[C@H](Nc1ncnc2[nH]cnc12)c1nc2cccc(F)c2c(=O)n1-c1ccccc1 [Form I]
~70 µg/mL

Data provenance: patent EP3048104A1
